Each record here notes measured Mean, FL1-H.
# TEST SYSTEM: T1, human mesothelin (MSLN) on the cell surface (human, UniProt Q13421 296-598)
# T1 construct: also called MSLN of mesothelioma (H226, H2052) and pancreatic cancer (AsPC-1) cell lines; MSLN on MiaPaCa-MSLN #2 cells
# T1 sequence (Q13421 other isoform, or with tags, fused parts or gaps limits assumed): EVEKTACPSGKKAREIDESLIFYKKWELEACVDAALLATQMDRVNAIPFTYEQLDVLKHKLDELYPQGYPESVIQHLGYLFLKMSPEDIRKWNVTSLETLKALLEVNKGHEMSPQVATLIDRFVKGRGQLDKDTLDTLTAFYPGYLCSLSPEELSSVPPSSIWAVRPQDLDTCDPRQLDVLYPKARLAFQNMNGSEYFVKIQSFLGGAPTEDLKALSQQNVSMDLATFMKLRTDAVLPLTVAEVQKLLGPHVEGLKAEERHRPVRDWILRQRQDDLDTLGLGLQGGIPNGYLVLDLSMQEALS
# PROCEDURE SUMMARY: FACS on MSLN stable cell line (#2), left panels; sheet note: 1st Ab 1 µg (1st assay), 2nd Ab anti-human Fc antibody FITC

clone MI329 anti-MSLN antibody (antibody, V domains shown, also called M1329) VH: EVMLVESGGDLVKPGGSLKLSCAASGFTFSSYAMSWVRRTPEKRLEWVATINSDGSYTFYPDSVKGRFTISRDNAKNTLYLQMNSLRSEDTAMYYCARWGENWYFDVWGAGTTVTVSS VL: DVVMTQTPLSLPVSLGDQASISCRSSQSLVHSNGNTYLHWYLQKPGQSPKLLIYKVSNRFSGVPDRFSGSGSGTDFTLKISRVEAEDLGIYFCSQSTHFPRTFGGATKLELKR    410
clone MI407 anti-MSLN antibody (antibody, V domains shown, also called M1407) VH: EVKLVESGGGLVKPGGSLKLSCAASGFPFSNYDMSWVRQTPEKRLEWVAYISSGGGNTYYPDTVKGRFTISRDNAKNTLYLQMSSLKSEDTALYFCVRQGTSVESYWYFDVWGAGTTVTVSS VL: DIVLTQSPASLAVSLGQRATISCRASQSVSTSSSSYIHWYQQKPGQPPKLLIKYASNLESGVPARFSGSGSGTDFTLNIHPVEEDDTATYYCQHSWEIPFTFGSGTELEIKR    225

Next up:
# Mean, FL1-H lookup, item clone MS502 anti-MSLN antibody (antibody, V domains shown, SPR and FACS done with IgG: human IgG1 heavy chain constant region) VH: EVQLLESGGGLVQPGGSLRLSCAASGFTFSNYAMSWVRQAPGKGLEWVSGIPPDSGSKYYADSVRGRFTVSRDNSKNTLYLQMNSLRAEDTAVYYCAKNMLSFDYWGQGTLVTVSS VL: QSVLTQPPSASGTPGQRVTISCTGSSSNIGSNAVSWYQQLPGTAPKLLIYYNSKRPSGVPDRFSGSKSGTSASLAISGLRSEDEADYYCGSWDSSLNGYVFGGGTKVTVLG
293
